# logP >= 0.2 gives Satisfied, anything below gives Not satisfied

| mol | categoryLabel |
| --- | --- |
| COc1cccc(S(N)(=O)=O)c1 | Satisfied |

Could you tell me if the measured logP of NC(=O)c1ccc(S(N)(=O)=O)cc1 reaches 0.2 or more?
Not satisfied

Could you tell me if the measured logP of CS(=O)(=O)Nc1ccc(S(N)(=O)=O)cc1 reaches 0.2 or more?
Not satisfied

Could you tell me if the measured logP of N#Cc1cccc(S(N)(=O)=O)c1 reaches 0.2 or more?
Satisfied

Could you tell me if the measured logP of CC(=O)c1cccc(S(N)(=O)=O)c1 reaches 0.2 or more?
Satisfied

Could you tell me if the measured logP of CCCCOc1cccc(S(N)(=O)=O)c1 reaches 0.2 or more?
Satisfied

Could you tell me if the measured logP of NS(=O)(=O)c1cccc(Br)c1 reaches 0.2 or more?
Satisfied

Could you tell me if the measured logP of CCCCCCOc1ccc(S(N)(=O)=O)cc1[N+](=O)[O-] reaches 0.2 or more?
Satisfied

Could you tell me if the measured logP of CC(=O)Nc1ccc(S(N)(=O)=O)cc1 reaches 0.2 or more?
Not satisfied

Could you tell me if the measured logP of CCCCOc1ccc(S(N)(=O)=O)cc1 reaches 0.2 or more?
Satisfied

Could you tell me if the measured logP of NS(=O)(=O)c1cccc(I)c1 reaches 0.2 or more?
Satisfied

Could you tell me if the measured logP of NC(=O)c1cccc(S(N)(=O)=O)c1 reaches 0.2 or more?
Not satisfied

Could you tell me if the measured logP of NS(=O)(=O)c1ccc(-c2ccccc2)cc1 reaches 0.2 or more?
Satisfied
